studyTarget: Sko1 (UniProt Q02100)
Sequence: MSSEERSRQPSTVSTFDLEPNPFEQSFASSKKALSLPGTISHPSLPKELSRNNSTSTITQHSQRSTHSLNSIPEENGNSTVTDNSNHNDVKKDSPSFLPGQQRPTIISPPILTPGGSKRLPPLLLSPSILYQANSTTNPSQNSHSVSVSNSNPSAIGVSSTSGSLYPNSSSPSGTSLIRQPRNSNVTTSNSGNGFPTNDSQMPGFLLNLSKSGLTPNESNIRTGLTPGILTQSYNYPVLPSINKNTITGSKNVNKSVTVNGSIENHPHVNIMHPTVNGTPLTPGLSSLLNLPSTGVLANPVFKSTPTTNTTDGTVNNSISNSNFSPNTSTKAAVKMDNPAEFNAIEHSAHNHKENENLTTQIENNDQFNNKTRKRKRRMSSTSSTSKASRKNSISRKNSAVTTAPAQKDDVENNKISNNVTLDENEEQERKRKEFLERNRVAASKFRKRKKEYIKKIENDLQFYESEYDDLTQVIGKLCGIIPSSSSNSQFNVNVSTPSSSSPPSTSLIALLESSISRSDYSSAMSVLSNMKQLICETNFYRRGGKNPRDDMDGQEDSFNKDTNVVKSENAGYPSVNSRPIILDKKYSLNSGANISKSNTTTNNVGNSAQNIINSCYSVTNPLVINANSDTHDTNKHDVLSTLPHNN
assayMethodText: PBM E-score (8-mer binding enrichment) (E-score (-0.5 to 0.5)); higher = stronger / more preferred TF binding
conditions: protein concentration: 200 nM; construct: GST-full length
The full ranking holds about 33,000 sequences; the median of “E-score (-0.5 to 0.5)” is about -0.032, and the highest 2% start at about 0.36. Many of the other results were omitted from the sample, so the highest values are more common in it than they were.

[
  {
    "chainSequence": "CAAACCTG",
    "PBM E-score": -0.0692
  },
  {
    "chainSequence": "AGCATCCA",
    "PBM E-score": -0.238
  },
  {
    "chainSequence": "ACTCTTGG",
    "PBM E-score": -0.179
  },
  {
    "chainSequence": "CGTATGTC",
    "PBM E-score": 0.321
  },
  {
    "chainSequence": "CGTATGAG",
    "PBM E-score": 0.267
  },
  {
    "chainSequence": "GACCTCGC",
    "PBM E-score": -0.122
  },
  {
    "chainSequence": "AGATTGAT",
    "PBM E-score": -0.0863
  },
  {
    "chainSequence": "CTGATGTA",
    "PBM E-score": 0.255
  },
  {
    "chainSequence": "CCGAGATA",
    "PBM E-score": 0.00305
  },
  {
    "chainSequence": "GAGCGTAA",
    "PBM E-score": 0.218
  },
  {
    "chainSequence": "GTGCGCAA",
    "PBM E-score": 0.114
  },
  {
    "chainSequence": "GTGCGTAA",
    "PBM E-score": 0.418
  },
  {
    "chainSequence": "GATTGGTA",
    "PBM E-score": -0.054
  },
  {
    "chainSequence": "AGTATGAA",
    "PBM E-score": 0.0617
  },
  {
    "chainSequence": "ATTGCCAC",
    "PBM E-score": -0.11
  },
  {
    "chainSequence": "GGTATGAC",
    "PBM E-score": 0.183
  },
  {
    "chainSequence": "CTGCGTAA",
    "PBM E-score": 0.397
  },
  {
    "chainSequence": "GTTACGCA",
    "PBM E-score": 0.417
  },
  {
    "chainSequence": "TCGCTTAA",
    "PBM E-score": -0.0032
  },
  {
    "chainSequence": "ATTACTCG",
    "PBM E-score": 0.204
  },
  {
    "chainSequence": "CGTATGAC",
    "PBM E-score": 0.445
  },
  {
    "chainSequence": "AAGTTTGC",
    "PBM E-score": 0.0635
  },
  {
    "chainSequence": "TGCGCGAA",
    "PBM E-score": 0.169
  }
]
